ASSAY_TARGET: 5-lipoxygenase (Rattus norvegicus)
Construct: The cell-free homogenate was prepared by sonication of the cells followed by centrifugation at 40,000 xg; endogenous in cells; host or cells: RBL-1 (rat basophilic leukemia) cells, 40,000 xg supernatant of the sonicate
RUN_DESCRIPTION: Inhibition of 5-lipoxygenase in cell-free homogenate of rat basophilic leukemia (RBL-1) cells
Format: biochemical
CONDITION_INFO: 3 μM; RBL-1 cell-free homogenate; read-out: Inhibition of 5-Lipoxygenase, % Inh. @ 3 μM
Method: The inhibition of 5-lipoxygenase was tested in a cell-free homogenate by the procedure of B. Jakschik et al., Biochem.Biophys.Res.Comm. 95, 103 (1980). […] The CaCl2 dependent production of lipoxygenase products from ^14 C-arachidonic acid in the 40,000 xg supernatant was monitored in the presence of buffer (or other vehicle) or drug. […] Radioactive areas corresponding to the authentic lipoxygenase products were quantitated by liquid scintillation counting. […]
PARAMETER_MEASURED: inhibition at 3 µM (%)
# unit: % | format: bare number

Dear colleague, please send me the reported inhibition at 3 µM for CCCCCCCCN(O)C(=O)N(C)C [Example 7, N,N-Dimethyl-N'-octyl-N'-hydroxyurea] when you can.
77

Dear colleague, please send me the reported inhibition at 3 µM for CN(O)C(=O)NCCCc1ccc(-c2ccccc2)cc1 when you can.
71

Dear colleague, please send me the reported inhibition at 3 µM for CCCCCCCCCCN(O)C(=O)NCCCCCCC(=O)OC when you can.
100

Dear colleague, please send me the reported inhibition at 3 µM for CCCCCCCCCCCCN(O)C(=O)N(C)C [Example 13, N,N-Dimethyl-N.-dodecyl-N'-hydroxyurea] when you can.
95

Dear colleague, please send me the reported inhibition at 3 µM for COc1ccc(CCNC(=O)N(O)C(C)C)cc1OC when you can.
95

Dear colleague, please send me the reported inhibition at 3 µM for CCCCCCCCCN(O)C(=O)N(C)C [Example 8, N,N-Dimethyl-N'-nonyl-N'-hydroxyurea] when you can.
93

* * *

ASSAY_TARGET: 5-lipoxygenase (Rattus norvegicus)
Construct: The cell-free homogenate was prepared by sonication of the cells followed by centrifugation at 40,000 xg; endogenous in cells
Sequence (P12527 1-673): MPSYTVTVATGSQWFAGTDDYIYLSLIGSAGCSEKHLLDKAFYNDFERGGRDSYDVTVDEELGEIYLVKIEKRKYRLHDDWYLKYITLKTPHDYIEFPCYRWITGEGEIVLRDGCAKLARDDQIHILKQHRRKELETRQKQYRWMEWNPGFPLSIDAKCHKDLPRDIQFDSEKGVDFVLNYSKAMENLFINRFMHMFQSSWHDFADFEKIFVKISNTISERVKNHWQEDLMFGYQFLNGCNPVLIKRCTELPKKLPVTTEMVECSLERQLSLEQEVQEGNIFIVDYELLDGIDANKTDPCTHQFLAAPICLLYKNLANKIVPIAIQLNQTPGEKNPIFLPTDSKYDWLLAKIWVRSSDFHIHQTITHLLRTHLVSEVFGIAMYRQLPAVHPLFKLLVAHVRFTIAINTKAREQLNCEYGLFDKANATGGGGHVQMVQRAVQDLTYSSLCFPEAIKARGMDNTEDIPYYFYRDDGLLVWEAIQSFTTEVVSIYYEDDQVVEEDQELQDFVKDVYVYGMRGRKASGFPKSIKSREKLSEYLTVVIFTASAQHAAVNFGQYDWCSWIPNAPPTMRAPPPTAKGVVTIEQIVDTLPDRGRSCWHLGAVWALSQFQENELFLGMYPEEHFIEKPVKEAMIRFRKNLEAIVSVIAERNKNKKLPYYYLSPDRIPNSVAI
RUN_DESCRIPTION: Inhibition of 5-lipoxygenase in cell-free homogenate of rat basophilic leukemia (RBL-1) cells
CONDITION_INFO: RBL-1 cell-free homogenate
PARAMETER_MEASURED: IC50 (nM)
# unit: nM | format: bare number

Consider the reported IC50 for these compounds:
In [3]: df
Out[3]:
                                   compound                        assay_target  measure_unit  measured_number
0               COc1ccc(CCNC(=O)N(C)O)cc1OC  5-lipoxygenase (Rattus norvegicus)            nM             4300
1  CCCCCCCCCCC1CN(O)C(=O)N1C (stereo not drawn)  5-lipoxygenase (Rattus norvegicus)            nM              280
2                   CCCCCCCCCCN1CCCN(O)C1=O  5-lipoxygenase (Rattus norvegicus)            nM              700
3  CCCCCCCCN(O)C(=O)N(C)C [Example 7, N,N-Dimethyl-N'-octyl-N'-hydroxyurea]  5-lipoxygenase (Rattus norvegicus)            nM             1800
4  CCCCCCCCCCN(O)C(=O)NC [Example 2, N-Methyl-N'-decyl-N'-hydroxyurea]  5-lipoxygenase (Rattus norvegicus)            nM               90

Dear colleague, please send me the reported IC50 for CCCCCCCCCCN(C)C(=O)N(C)O [Example 17, N-Decyl-N,N'-dimethyl-N'-hydroxyurea] when you can.
160

Dear colleague, please send me the reported IC50 for CCCCCCCCCCN(O)C(=O)N(C)C [Example 11, N,N-Dimethyl-N'-decyl-N'-hydroxyurea] when you can.
100

Dear colleague, please send me the reported IC50 for CCCCCCCCN1CCN(O)C1=O [Example 24, 1-Octyl-3-hydroxyimidazolidin-2-one] when you can.
5200

Dear colleague, please send me the reported IC50 for CCCCCCCCCCNC(=O)N(C)O [Example 16, N-Decyl-N'-methyl-N'-hydroxyurea] when you can.
210

Dear colleague, please send me the reported IC50 for CCCCCCCCCCN1C(=O)N(O)CC1C(=O)OCC (stereo not drawn) when you can.
1400

Dear colleague, please send me the reported IC50 for CCCCCCCCCCN1CCN(O)C1=O [Example 25, 1-Decyl-3-hydroxyimidazolidin-2-one] when you can.
740

Where do these numbers come from? They come from patent US5066658A.
